# OD450 per record follows
studyTarget: Peptide 5: Biotin-…-[Tyr(PC)]-acid
Sequence (peptide, as listed by the source): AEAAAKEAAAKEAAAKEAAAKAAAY
assayComment: scFv ELISA
Provide the reading as a plain figure in OD450.

binder: PcOxP_DB02_E01 (scFv, V domains shown, scFv in periplasmic extract) VH: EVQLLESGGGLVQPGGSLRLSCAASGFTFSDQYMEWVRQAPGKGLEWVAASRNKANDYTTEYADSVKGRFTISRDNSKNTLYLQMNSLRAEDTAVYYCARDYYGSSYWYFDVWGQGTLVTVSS VL: DIQMTQSPSSLSASVGDRVTITCTASESLYSSKHKVHYLAWYQQKPGKAPKLLIYGASGRYIGVPSRFSGSGSGTDFTLTISSLQPEDFATYYCAQFYSYPLTFGGGTKVEIK
unitSymbol: OD450
valueReported: 0.63

binder: PcOxP_DB02_H04 (scFv, V domains shown, scFv in periplasmic extract) VH: EVQLLESGGGLVQPGGSLRLSCAASGFTFSDEYMEWVRQAPGKGLEWVAASRNKANDYTTEYADSVKGRFTISRDNSKNTLYLQMNSLRAEDTAVYYCARDYYGSSYWYFDVWGQGTLVTVSS VL: DIVMTQSPDSLAVSLGERATINCTASESLYSSKHKVVYLAWYQQKPGQPPKLLIYGASNRYIGVPDRFSGSGSGTDFTLTISSLQAEDVAVYYCAQFYFYPLTFGGGTKVEIK
unitSymbol: OD450
valueReported: 0.2

binder: PcOxP_DB01_B09 (scFv, V domains shown, scFv in periplasmic extract) VH: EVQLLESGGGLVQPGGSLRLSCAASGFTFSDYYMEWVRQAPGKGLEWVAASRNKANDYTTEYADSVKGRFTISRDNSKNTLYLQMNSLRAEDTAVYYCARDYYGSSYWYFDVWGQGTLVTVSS VL: DIQMTQSPSSLSASVGDRVTITCTASESLYSSKHKVHYLAWYQQKPGKAPKLLIYGASNRYTGVPSRFSGSGSGTDFTLTISSLQPEDFATYYCAQFYHYPLTFGGGTKVEIK
unitSymbol: OD450
valueReported: 1.42

binder: PcOxP_DB02_C09 (scFv, V domains shown, scFv in periplasmic extract) VH: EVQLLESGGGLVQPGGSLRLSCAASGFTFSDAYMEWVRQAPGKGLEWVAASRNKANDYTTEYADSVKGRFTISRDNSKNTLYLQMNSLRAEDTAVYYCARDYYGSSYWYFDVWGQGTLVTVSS VL: DIQMTQSPSSLSASVGDRVTITCTASESLYSSKHKVHYLAWYQQKPGKAPKLLIYGAGNRYIGVPSRFSGSGSGTDFTLTISSLQPEDFATYYCAQFYFYPLTFGGGTKVEIK
unitSymbol: OD450
valueReported: 1.01

q: Read off the recorded OD450 for PcOxP_DB01_F11 (scFv, V domains shown, scFv in periplasmic extract) VH: EVQLLESGGGLVQPGGSLRLSCAASGFTFSSYYMEWVRQAPGKGLEWVAASRNKANDYTTEYADSVKGRFTISRDNSKNTLYLQMNSLRAEDTAVYYCARDYYGSSYWYYDVWGQGTLVTVSS VL: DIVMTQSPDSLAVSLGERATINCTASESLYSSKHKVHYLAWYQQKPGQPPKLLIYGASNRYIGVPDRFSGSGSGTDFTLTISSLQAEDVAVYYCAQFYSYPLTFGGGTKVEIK
a: 1.92

q: Read off the recorded OD450 for PcOxP_DB03_F07 (scFv, V domains shown, scFv in periplasmic extract) VH: EVQLLESGGGLVQPGGSLRLSCAASGFTQSDFYMEWVRQAPGKGLEWVAASRNKGNSYTTAYADSVKGRFTISRDNSKNTLYLQMNSLRAEDTAVYYCARDYYGSSYWYFDVWGQGTLVTVSS VL: DIVMTQSPDSLAVSLGERATINCTASESLYSGKHKVHYLAWYQQKPGQPPKLLIYGASNRYIGVPDRFSGSGSGTDFTLTISSLQAEDVAVYYCAQFYSYPLTFGGGTKVEIK
a: 1.19

q: Read off the recorded OD450 for PcOxP_DB04_A12 (scFv, V domains shown, scFv in periplasmic extract) VH: EVQLLESGGGLVQPGGSLRLSCAASGFTFSDGYMEWVRQAPGKGLEWVAASRNKWNDYTTEYADSVKGRFTISRDNSKNTLYLQMNSLRAEDTAVYYCARDYYGSSYWYFDVWGQGTLVTVSS VL: DIQMTQSPSSLSASVGDRVTITCTASESLYSSKHKVHYLAWYQQKPGKAPKLLIYGASNRYDGVPSRFSGSGSGTDFTLTISSLQPEDFATYYCAQFYSYPLTFGGGTKVEIK
a: 1.38
